Value source: the supplement of paper PMC7726561

- SYSTEM_UNDER_TEST: HLA-B*07:02;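 further: lysates heated 10 min at 37–73 °C, complexes pulled down with pan-HLA I antibody, peptide signal by DIA-MS relative to 37 °C, Tm where half the complex is unfolded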
- TEST_NAME: thermal melting temperature (Tm) of peptide-HLA complex; higher = more thermostable pHLA complex
- TEST_SETTINGS: C1R-B*07:02
Whole data set: some 1,400 sequences, median “thermal melting temperature (Tm) of peptide-HLA complex” near 60, cut for the lowest 2% near 45. The full list was thinned out, with the lowest values kept by preference.
Attribute: thermal melting temperature
EXPERIMENTAL_READOUT: thermal melting temperature (°C)

1. IPFSNPRVL = 61.4
2. GPHVPFTVF = 62.3
3. RPKALTQVL = 61
4. NPKNPGLWL = 61
5. APILRARLLPL = 47.3
6. VPNWHRDLV = 58.3
7. LPRKPSVPW = 59.5
8. TPQQGAQTSL = 40.5
